Quick reference: fraction unbound at 4 h, 2 μM of the listed items.
Assay: Plasma protein binding test, dog
Type: in vitro ADME
Experimental: • 1. Test compound and control compound were dissolved in dimethyl sulfoxide (DMSO) to achieve 10 mM stock solutions. DMSO working solutions were prepared at 400 μM. To prepare the loading matrix, compound working solutions (5 μL) were added in a 1:200 ratio to blank matrix (995 μL), and mixed thoroughly. • 2. […] The % Unbound and % Bound were calculated using the following equations: […]
REPORTED PROPERTY: fraction unbound at 4 h, 2 μM

INSERT INTO results (given_smiles, reported_property, result_number) VALUES
  ('CCC(=O)c1cnc(NC(=O)C2CC2)cc1Nc1cccc(-c2cc(P(C)(C)=O)n(C)n2)c1OC', 'fraction unbound at 4 h, 2 μM', 0.119),
  ('[2H]C([2H])([2H])NC(=O)c1nnc(NC(=O)C2CC2)cc1Nc1cccc(-c2cc(P(=O)(C3CC3)C3CC3)n(C)n2)c1OC', 'fraction unbound at 4 h, 2 μM', 0.019),
  ('[2H]C([2H])([2H])n1nc(-c2cccc(Nc3cc(NC(=O)C4CC4)ncc3C(=O)CC)c2OC)cc1P(C)(C)=O', 'fraction unbound at 4 h, 2 μM', 0.156);

###

Test: Pharmacokinetic evaluation in rats
Type: in vivo, rat
Conditions: male, plasma, iv; rat, i.v. 2 mg/kg
Quick reference: AUC of the listed items.
REPORTED PROPERTY: AUC

INSERT INTO assay_data (given_smiles, reported_property, result) VALUES
  ('CCC(=O)c1cnc(NC(=O)C2CC2)cc1Nc1cccc(-c2cc(P(=O)(C3CC3)C3CC3)n(C)n2)c1OC', 'AUC', '3090 ng·h/mL'),
  ('CCC(=O)c1cnc(NC(=O)C2CC2)cc1Nc1cccc(-c2cc(P(C)(C)=O)n(C)n2)c1OC', 'AUC', '2430 ng·h/mL'),
  ('[2H]C([2H])([2H])n1nc(-c2cccc(Nc3cc(NC(=O)C4CC4)ncc3C(=O)CC)c2OC)cc1P(C)(C)=O', 'AUC', '2670 ng·h/mL'),
  ('[2H]C([2H])([2H])NC(=O)c1nnc(NC(=O)C2CC2)cc1Nc1cccc(-c2cc(P(=O)(C3CC3)C3CC3)n(C)n2)c1OC', 'AUC', '2880 ng·h/mL');

###

Assay: Pharmacokinetic evaluation in mice
Type: in vivo
Conditions: male, mouse, plasma, po; mice, p.o. 10 mg/kg
Quick reference: AUC of the listed items.
REPORTED PROPERTY: AUC (ng·h/mL)

INSERT INTO results (compound, quantity_unit, result_number) VALUES
  ('CCC(=O)c1cnc(NC(=O)C2CC2)cc1Nc1cccc(-c2cc(P(=O)(C3CC3)C3CC3)n(C)n2)c1OC [Compound B37]', 'ng·h/mL', 8420),
  ('[2H]C([2H])([2H])n1nc(-c2cccc(Nc3cc(NC(=O)C4CC4)ncc3C(=O)CC)c2OC)cc1P(C)(C)=O [Compound B22]', 'ng·h/mL', 6370),
  ('[2H]C([2H])([2H])NC(=O)c1nnc(NC(=O)C2CC2)cc1Nc1cccc(-c2cc(P(=O)(C3CC3)C3CC3)n(C)n2)c1OC [Compound B41]', 'ng·h/mL', 11900),
  ('CCC(=O)c1cnc(NC(=O)C2CC2)cc1Nc1cccc(-c2cc(P(C)(C)=O)n(C)n2)c1OC [Compound B2]', 'ng·h/mL', 4140);

###

Target: TYK2 (Mus musculus (Mouse), UniProt Q9R117)
Sequence (Q9R117 whole entry): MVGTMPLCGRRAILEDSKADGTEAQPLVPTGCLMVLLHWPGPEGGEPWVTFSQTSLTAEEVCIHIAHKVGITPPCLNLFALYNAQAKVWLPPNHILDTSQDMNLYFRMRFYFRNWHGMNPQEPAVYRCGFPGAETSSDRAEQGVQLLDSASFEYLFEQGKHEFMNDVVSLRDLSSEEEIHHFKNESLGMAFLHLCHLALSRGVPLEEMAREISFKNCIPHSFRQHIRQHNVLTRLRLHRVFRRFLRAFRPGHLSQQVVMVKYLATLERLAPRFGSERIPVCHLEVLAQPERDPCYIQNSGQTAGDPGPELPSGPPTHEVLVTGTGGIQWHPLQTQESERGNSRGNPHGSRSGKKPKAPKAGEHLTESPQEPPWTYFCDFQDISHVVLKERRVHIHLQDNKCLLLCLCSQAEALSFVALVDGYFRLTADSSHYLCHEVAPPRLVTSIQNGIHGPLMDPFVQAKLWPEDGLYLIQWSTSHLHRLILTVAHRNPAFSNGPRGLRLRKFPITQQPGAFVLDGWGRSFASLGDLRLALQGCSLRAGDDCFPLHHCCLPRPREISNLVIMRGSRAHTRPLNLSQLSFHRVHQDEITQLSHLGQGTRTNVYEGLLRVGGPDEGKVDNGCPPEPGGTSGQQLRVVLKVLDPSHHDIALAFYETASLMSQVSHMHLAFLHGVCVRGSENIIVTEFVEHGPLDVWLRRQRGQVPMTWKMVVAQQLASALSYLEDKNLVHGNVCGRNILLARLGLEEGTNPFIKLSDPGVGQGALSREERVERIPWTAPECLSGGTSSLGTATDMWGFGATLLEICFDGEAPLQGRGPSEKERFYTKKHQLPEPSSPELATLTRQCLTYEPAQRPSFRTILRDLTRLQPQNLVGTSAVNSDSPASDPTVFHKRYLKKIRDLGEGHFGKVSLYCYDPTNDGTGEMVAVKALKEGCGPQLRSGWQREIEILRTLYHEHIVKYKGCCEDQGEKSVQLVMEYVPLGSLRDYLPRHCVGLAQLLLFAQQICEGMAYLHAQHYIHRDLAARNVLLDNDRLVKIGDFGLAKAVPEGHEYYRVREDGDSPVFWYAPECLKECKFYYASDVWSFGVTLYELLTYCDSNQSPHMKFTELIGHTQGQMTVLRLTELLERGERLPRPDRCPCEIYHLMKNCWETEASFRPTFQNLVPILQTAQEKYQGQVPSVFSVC
Assay: Luciferase assay in L929 ISRE cells stimulated with IFN-α
Format: cell-based
Settings: 1000 nM, IFN-α 100 ng/mL, read-out: Inhibitory activity % (1000 nM)
REPORTED PROPERTY: inhibition at 1 µM

INSERT INTO measurements (given_smiles, test_system, result) VALUES
  ('CCC(=O)c1nnc(NC(=O)C2CC2)cc1Nc1cccc(-c2cc(P(C)(C)=O)n(CC)n2)c1OC', 'TYK2 (Mus musculus (Mouse), UniProt Q9R117)', '26%'),
  ('CCC(=O)c1cnc(NC(=O)C2CC2)cc1Nc1cccc(-c2nc(P(C)(C)=O)cs2)c1OC', 'TYK2 (Mus musculus (Mouse), UniProt Q9R117)', '36%'),
  ('[2H]C([2H])([2H])NC(=O)c1nnc(NC(=O)C2CC2)cc1Nc1cccc(-c2cc(P(C)(C)=O)n(C)n2)c1OC', 'TYK2 (Mus musculus (Mouse), UniProt Q9R117)', '65%'),
  ('CCC(=O)c1cnc(NC(=O)C2CC2)cc1Nc1cccc(-c2cccc(P(C)(C)=O)c2)c1OC', 'TYK2 (Mus musculus (Mouse), UniProt Q9R117)', '46%'),
  ('CCC(=O)c1cnc(NC(=O)C2CC2)cc1Nc1cc(F)cc(-c2cc(P(C)(C)=O)n(C)n2)c1OC', 'TYK2 (Mus musculus (Mouse), UniProt Q9R117)', '67%'),
  ('[2H]C([2H])([2H])n1nc(-c2ccnc(Nc3cc(NC(=O)C4CC4)ncc3C(=O)CC)c2OC)cc1P(C)(C)=O', 'TYK2 (Mus musculus (Mouse), UniProt Q9R117)', '60%'),
  ('[2H]C([2H])([2H])n1nc(-c2cccc(Nc3cc(NC(=O)C4CC4)ncc3C(=O)CC)c2OC)cc1P(C)(C)=O', 'TYK2 (Mus musculus (Mouse), UniProt Q9R117)', '83%'),
  ('CNC(=O)c1nnc(NC(=O)C2CC2)cc1Nc1cccc(-c2cc(P(C)(C)=O)n(C)n2)c1OC', 'TYK2 (Mus musculus (Mouse), UniProt Q9R117)', '80%'),
  ('CCC(=O)c1cnc(NC(=O)C2CC2)cc1Nc1cccc(-c2ccc(P(C)(C)=O)cn2)c1OC', 'TYK2 (Mus musculus (Mouse), UniProt Q9R117)', '58%'),
  ('CCC(=O)c1nnc(NC(=O)C2CC2)cc1Nc1cc(F)cc(-c2cc(P(C)(C)=O)n(C)n2)c1OC', 'TYK2 (Mus musculus (Mouse), UniProt Q9R117)', '13%'),
  ('CCC(=O)c1cnc(NC(=O)C2CC2)cc1Nc1ncnc(-c2cc(P(=O)(C3CC3)C3CC3)n(C)n2)c1OC', 'TYK2 (Mus musculus (Mouse), UniProt Q9R117)', '96%'),
  ('CCC(=O)c1cnc(NC(=O)C2CC2)cc1Nc1cccc(-c2cc(P(C)(C)=O)n(C)n2)c1C', 'TYK2 (Mus musculus (Mouse), UniProt Q9R117)', '27%'),
  ('CCC(=O)c1cnc(NC(=O)C2CC2)cc1Nc1nccc(-c2ncc(P(=O)(CC)CC)cn2)c1OC', 'TYK2 (Mus musculus (Mouse), UniProt Q9R117)', '75%'),
  ('CNC(=O)c1nnc(NC(=O)C2CC2)cc1Nc1cccc(-c2ncc(P(C)(C)=O)cn2)c1OC', 'TYK2 (Mus musculus (Mouse), UniProt Q9R117)', '58%'),
  ('CCC(=O)c1cnc(NC(=O)C2CC2)cc1Nc1nccc(-c2cc(P(=O)(CC)CC)n(C)n2)c1OC', 'TYK2 (Mus musculus (Mouse), UniProt Q9R117)', '93%'),
  ('CCC(=O)c1cnc(NC(=O)C2CC2)cc1Nc1cccc(-c2cc(P(C)(C)=O)nn2C)c1OC', 'TYK2 (Mus musculus (Mouse), UniProt Q9R117)', '40%'),
  ('CCC(=O)c1cnc(NC(=O)C2CC2)cc1Nc1cccc(-c2cc(P(C)(C)=O)n(C)n2)c1', 'TYK2 (Mus musculus (Mouse), UniProt Q9R117)', '45%'),
  ('[2H]C([2H])([2H])n1nc(-c2ccnc(Nc3cc(NC(=O)C4CC4)ncc3C(=O)CC)c2OC)cc1P(=O)(CC)CC', 'TYK2 (Mus musculus (Mouse), UniProt Q9R117)', '86%'),
  ('CCC(=O)c1cnc(NC(=O)C2CC2)cc1Nc1cc(F)cc(-c2cc(P(=O)(CC)CC)n(C)n2)c1OC', 'TYK2 (Mus musculus (Mouse), UniProt Q9R117)', '88%'),
  ('CCC(=O)c1nnc(NC(=O)C2CC2)cc1Nc1cccc(-c2cc(P(C)(C)=O)n(C)n2)c1OC', 'TYK2 (Mus musculus (Mouse), UniProt Q9R117)', '42%'),
  ('CNC(=O)c1nnc(NC(=O)C2CC2)cc1Nc1cccc(-c2cc(P(=O)(C3CC3)C3CC3)n(C)n2)c1OC', 'TYK2 (Mus musculus (Mouse), UniProt Q9R117)', '81%'),
  ('CCC(=O)c1cnc(NC(=O)C2CC2)cc1Nc1cccc(-c2cc(P(C)(C)=O)n(C)n2)c1F', 'TYK2 (Mus musculus (Mouse), UniProt Q9R117)', '0%'),
  ('[2H]C([2H])([2H])NC(=O)c1nnc(NC(=O)C2CC2)cc1Nc1cccc(-c2cc(P(=O)(CC)CC)n(C)n2)c1OC', 'TYK2 (Mus musculus (Mouse), UniProt Q9R117)', '95%'),
  ('CCC(=O)c1cnc(NC(=O)C2CC2)cc1Nc1cccc(-c2cc(P3(=O)CCCC3)n(C)n2)c1OC', 'TYK2 (Mus musculus (Mouse), UniProt Q9R117)', '75%'),
  ('CCC(=O)c1cnc(NC(=O)C2CC2)cc1Nc1nccc(-c2cc(P(=O)(C3CC3)C3CC3)n(C)n2)c1OC', 'TYK2 (Mus musculus (Mouse), UniProt Q9R117)', '95%');
